# TARGET_OR_TEST_SYSTEM: human recombinant MAO A (Homo sapiens, UniProt P21397)
# Sequence (P21397 whole entry): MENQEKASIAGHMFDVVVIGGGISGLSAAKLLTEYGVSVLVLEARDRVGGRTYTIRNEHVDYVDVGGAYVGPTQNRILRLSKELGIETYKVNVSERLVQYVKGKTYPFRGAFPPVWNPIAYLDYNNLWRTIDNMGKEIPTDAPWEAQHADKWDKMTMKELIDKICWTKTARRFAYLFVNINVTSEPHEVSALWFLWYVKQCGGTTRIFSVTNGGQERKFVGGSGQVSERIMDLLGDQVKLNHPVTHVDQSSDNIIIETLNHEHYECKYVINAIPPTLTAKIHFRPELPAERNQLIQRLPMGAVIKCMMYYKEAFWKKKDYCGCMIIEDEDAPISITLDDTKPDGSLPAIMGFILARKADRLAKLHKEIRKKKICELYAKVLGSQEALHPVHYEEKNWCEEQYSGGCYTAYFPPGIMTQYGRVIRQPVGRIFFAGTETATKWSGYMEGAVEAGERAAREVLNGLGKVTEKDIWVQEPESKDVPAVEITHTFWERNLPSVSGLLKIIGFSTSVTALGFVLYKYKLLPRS
# ASSAY_DETAILS: MAO A inhibition, kynuramine assay (4-hydroxyquinoline fluorescence)
# CONDITION_SET: KI (inhibition constant for the free enzyme) vs. MAO A, global fit, mixed model; inhibitor 0.25–2 μM; kynuramine varied

COMPOUND_STRUCTURE: COc1ccccc1CNCCCCCCNc1ccc(CCc2ccc(NCCCCCCNCc3ccccc3OC)cc2)cc1
Ki / nM: 620

----------
In this section, each of the molecules is paired with its reported pKi.
# TARGET_OR_TEST_SYSTEM: human recombinant MAO B (Homo sapiens, UniProt P27338)
# Sequence (P27338 1-520): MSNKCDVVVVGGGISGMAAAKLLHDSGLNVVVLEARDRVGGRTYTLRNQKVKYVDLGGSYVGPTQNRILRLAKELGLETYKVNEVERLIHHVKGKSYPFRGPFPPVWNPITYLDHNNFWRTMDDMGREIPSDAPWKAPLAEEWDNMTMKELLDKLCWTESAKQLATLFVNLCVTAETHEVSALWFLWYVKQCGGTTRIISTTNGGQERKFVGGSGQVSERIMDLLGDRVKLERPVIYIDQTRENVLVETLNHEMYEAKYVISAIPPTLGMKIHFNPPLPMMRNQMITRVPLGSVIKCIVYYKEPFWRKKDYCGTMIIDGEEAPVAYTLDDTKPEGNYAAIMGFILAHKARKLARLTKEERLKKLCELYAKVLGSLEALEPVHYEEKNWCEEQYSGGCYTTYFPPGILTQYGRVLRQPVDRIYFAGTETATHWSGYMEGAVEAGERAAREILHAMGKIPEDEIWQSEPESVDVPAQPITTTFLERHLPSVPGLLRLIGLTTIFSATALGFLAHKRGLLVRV
# ASSAY_DETAILS: MAO B inhibition, kynuramine assay (4-hydroxyquinoline fluorescence)
# CONDITION_SET: MAO B Ki, human recombinant MAO B; kynuramine 10 μM; from slope of Vo/VI vs compound concentration (1.25–40 μM); mean ± S.D.
pKi: −log10 of the molar value.
METRIC: pKi

COMPOUND_STRUCTURE: COc1ccccc1CNCCCCCCN1Cc2ccc3c4c(ccc(c24)C1)CN(CCCCCCNCc1ccccc1OC)C3
RESULT_NUMBER: 4.57
//
COMPOUND_STRUCTURE: COc1ccccc1CNCCCCCCNc1ccc(CCc2ccc(NCCCCCCNCc3ccccc3OC)cc2)cc1
RESULT_NUMBER: 6.52
//
COMPOUND_STRUCTURE: COc1ccccc1CNCCCCCCN1C(=O)c2ccc3c4c(ccc(c24)C1=O)C(=O)N(CCCCCCNCc1ccccc1OC)C3=O
RESULT_NUMBER: 5.38

Sourced from paper PMC10490032
